Exercise: state measured MIC for each of the compounds provided.
System: Mycobacterium tuberculosis
EXPERIMENT_SUMMARY: Antimycobacterial activity against multidrug resistance Mycobacterium tuberculosis 16883 clinical isolate assessed as reduction in bacterial cell viability incubated for 7 days by microplate alamar blue assay
Assay type: functional
CONDITION_SUMMARY: Mycobacterium tuberculosis, 16883, 168 h

# count of solved cases: 4
{"COMPOUND": "O=c1nc(N2CCC3(CCN(c4ccc(F)cc4)C3)CC2)sc2c([N+](=O)[O-])cc(C(F)(F)F)cc12", "MIC": "< 0.035 µM"}
{"COMPOUND": "O=c1nc(N2CCN(CC3CCCCC3)CC2)sc2c([N+](=O)[O-])cc(C(F)(F)F)cc12 [MACOZINONE]", "MIC": "< 0.035 µM"}
{"COMPOUND": "O=c1nc(N2CC3CCC2CN3Cc2ccc(F)cc2)sc2c([N+](=O)[O-])cc(C(F)(F)F)cc12 (stereo not given)", "MIC": "0.062 µM"}
{"COMPOUND": "CO[C@H]1/C=C/O[C@@]2(C)Oc3c(C)c(O)c4c(O)c(c(/C=N/N5CCN(C)CC5)c(O)c4c3C2=O)NC(=O)/C(C)=C\\C=C\\[C@H](C)[C@H](O)[C@@H](C)[C@@H](O)[C@@H](C)[C@H](OC(C)=O)[C@@H]1C [RIFAMPIN]", "MIC": "> 40 µM"}

Moving on to another compound below.
-- ask So what's the measured MIC for this one? NNC(=O)c1ccncc1 [ISONIAZID]
-- reply > 40 µM
